system: MALME-3M melanoma; assay: NCI-60 one-dose screen, 48 h; conditions: 10 µM unless noted
About 83,000 compounds went through this panel and 20% of them were active in at least one assay; those are over-represented in the sample as a whole. The source made the active and inactive calls. Rule for the calls: active = growth percent below 10; inactive = the rest.
Your answer must be one of the following: True (active), False (inactive)

See these solved cases before continuing.
COMPOUND	ASSIGNED LABEL
CC(=O)[C@H]1CC[C@H]2[C@@H]3CC[C@H]4C[C@H](N)CC[C@]4(C)[C@H]3CC[C@]12C	False
O=C(O)C(Cl)(Cl)C(F)(F)F	False

Short answer needed: outcome of this test for CN1C(=O)N[C@H]2[C@@H]3NC(=O)c4ccc(Br)n4[C@@H]3C[C@]21O ?
True

Same lookup for CCOP(=O)(Nc1ccc2c(c1)/C(=N/NC(N)=S)c1ccccc1-2)OCC , please.
False

Same lookup for Cc1ccc(N2COOC3(OOC2)C2CC4CC(C2)CC3C4)cc1 , please.
False

Same lookup for O=C(c1ccccc1O)c1[nH]c(Cl)c(Cl)c1-n1c(C(=O)c2ccccc2O)cc(Cl)c1Cl , please.
True

Same lookup for CN1C(=O)C(=Cc2cn(Cc3ccccc3)c3ccccc23)C(=O)N(C)C1=O , please.
False

Same lookup for COC(=O)CC[C@H](Cc1ccccc1)NC(=O)c1csc([C@@H](C[C@H](C(C)C)N(C)C(=O)[C@@H](NC(=O)[C@H]2CCCCN2C)C(C)C)OC(C)=O)n1 , please.
False

Same lookup for CN1C(=O)C23CC4(C56CC78SSC(CO)(C(=O)N7C5Nc5ccccc56)N(C)C8=O)c5ccccc5NC4N2C(=O)C1(CO)SS3 (stereo not drawn) , please.
True

Same lookup for CCCCN1CCCC[C@@H]1C(=O)N[C@H](C(=O)N(C)[C@H](CCc1nc(C(=O)N[C@@H](Cc2ccccc2)C[C@H](C)C(=O)OC)cs1)C(C)C)[C@@H](C)CC , please.
False

Same lookup for ClCCN(CCCl)Cc1ccc(Nc2ccnc3cc(Cl)ccc23)cc1 , please.
False

Same lookup for O=C1C(=Cc2cn(Cc3ccccc3)c3ccccc23)C(=O)N(Cc2ccccc2)C(=O)N1Cc1ccccc1 , please.
False

---

system: NCI/ADR-RES ovarian; assay: NCI-60 one-dose screen, 48 h (100 = growth as untreated, 0 = no growth, -100 = all killed); details: 10 µM unless noted
The panel holds about 83,000 compounds, 20% with a hit somewhere; the sample as a whole holds those more often.
Lab note: cut-off is 30%. Strictly less in growth is Satisfied. Exactly 30% or more is Not satisfied.

COMPOUND	ASSIGNED LABEL
Fc1ccc2c(c1)c(-c1nc(-c3c[nH]c4ncccc34)cs1)cn2CCN1CCOCC1	Not satisfied
ClCCN(CCCl)c1ccc(/C=N\N=C\c2ccc(N(CCCl)CCCl)cc2)cc1	Not satisfied
OCCCCCNC1CCCCC1	Not satisfied
O=C(CCCCCNC1=CC(=O)c2ccccc2C1=O)NCCC[Te]c1ccccc1	Satisfied
N#C[Se]Cc1cc(-c2ccccc2)n(-c2ccc(S(N)(=O)=O)cc2)n1	Not satisfied
CC(C)(NC(=O)O[C@@H]1CN2CCC1CC2)c1csc(-c2ccc(F)cc2)n1	Not satisfied

For Cc1cc(N(CCCl)CCCl)ccc1/C=N\NC(=O)c1ccncc1 , is the recorded growth below the cut-off of 30%?
Not satisfied

Same lookup for CC1=C(CCCNS(C)(=O)=O)C2=C(C)C3(CC3)[C@@](C)(O)C(=O)C2=C1 , please.
Satisfied

Same lookup for COc1cc([C@@H]2c3cc4c(cc3[C@H](OC(C)=O)[C@H]3COC(=O)[C@@H]23)OCO4)cc(OC)c1OC , please.
Satisfied

Same lookup for O=NN1CCCc2cccc(O)c21 , please.
Not satisfied

Same lookup for CC(=O)C(c1c(O)c2ccccc2oc1=O)c1cc(=O)oc2c1ccc1ccccc12 (stereo not drawn) , please.
Not satisfied

Same lookup for COc1ccc(S(=O)(=O)N(Cc2ccc3c(c2)C=CC(C)(C)O3)c2ccccc2)cc1OC , please.
Not satisfied

Same lookup for CCn1cnc2c(Nc3cccc(Cl)c3)nc(N[C@@H]3CCCC[C@@H]3N)nc21 , please.
Satisfied

Same lookup for NC(CCl)CCl , please.
Not satisfied

Same lookup for C[C@]12CC[C@H]3[C@@H](CC4SC(N)=NC45C/C(=N/NC(N)=O)CC[C@]35C)[C@@H]1CCC2=O (stereo partly drawn) , please.
Satisfied

Same lookup for C[C@@H]1CCC2[C@@H](C)[C@H](OC(=O)CCC(=O)NCCNC(=O)Cc3cc(=O)oc4cc(N(C)C)ccc34)O[C@@H]3O[C@]4(C)CC[C@@H]1C23OO4 (stereo partly drawn) , please.
Satisfied

Same lookup for C[C@]12C[C@@H](CO)[C@H](O)C[C@@H]1CC[C@@H]1[C@@H]2CC[C@]2(C)[C@@H](O)CC[C@@H]12 , please.
Not satisfied

Same lookup for CC(=O)O[C@H](C[C@H](C(C)C)N(C)C(=O)[C@@H](NC(=O)[C@H]1CCCCN1C)C(C)C)c1nc(C(=O)N[C@@H](Cc2ccccc2)C[C@H](C)C(=O)O)c(C)s1 , please.
Satisfied

Same lookup for CN(C)CCCOc1ccc2c(c1)c(C(=O)C(=O)NCCO)cn2Cc1ccccc1 , please.
Not satisfied

Same lookup for OCCNC(Cc1ccccc1)c1ccc2c(c1)OCO2 (stereo not drawn) , please.
Not satisfied
